Tested on: HUVECs
Ends that are not written are not given here.
reported.endpoint: pIC50
Remember the convention: pIC50 equals -log10 of concentration in molar.

For the sequence KELANILKYHIGDEILVS [YH18 synthetic peptide] , the measured pIC50 on HUVECs was 3.30
